meta.source: PubChem BioAssay (Tox21)

testSummary: A CellTox Green Cytotoxicity Assay to monitor cytotoxicity in HEK293 cells - 32 hour (AID 1224881); also: nearly all actives have a fitted effect of over 40% in size
settings: CellTox Green fluorescence; series mostly up to 76.8 µM
Records with an inconclusive call do not appear. Activity calls are given as the source filed them. Calls follow the shape of the dose curve; as a rule, active = well fitted activation curve with a large enough effect in the repeat runs; inconclusive = weak or mixed curves; inactive = flat fitted curve, though single readings scatter.
measuredMetric: outcome

Answered cases to consult:
compound	outcome
CCCCOCCOCCOCCOCCO	inactive
CCOC(=S)SSC(=S)OCC	inactive
Cc1ccccc1N=Nc1ccc(N=Nc2c(O)ccc3ccccc23)c(C)c1	inactive
c1ccc(OCc2ccc(CCCN3CCOCC3)cc2)cc1	inactive
OC(CCN1CCCCC1)(c1ccccc1)C1CCCCC1 (stereo unspecified)	inactive

q: Can you look up the measured outcome of Cc1ccc(C(=O)C(C)CN2CCCCC2)cc1 (stereo unspecified) for me?
a: inactive

q: Field entry: `C#CCOC(=O)[C@@H](C)Oc1ccc(Oc2ncc(Cl)cc2F)cc1`
a: inactive

q: Field entry: `O=C(O)COC(=O)Cc1ccccc1Nc1c(Cl)cccc1Cl`
a: inactive

q: Field entry: CCC(C)N(C)C(=O)c1cc2ccccc2c(-c2ccccc2Cl)n1 (stereo unspecified)
a: inactive

q: Field entry: O=C(Nc1ccccc1)OCC(CN1CCCCC1)OC(=O)Nc1ccccc1 (stereo unspecified)
a: inactive

q: Field entry: O=C(O)C1CCC(C(=O)O)CC1 (stereo unspecified)
a: inactive

q: Field entry: CC(C)NCC(O)c1cc(O)cc(O)c1 (stereo unspecified)
a: inactive

q: Field entry: `NCc1ccccc1`
a: inactive

q: Field entry: `O=C(O)Cn1c(C(=O)Nc2nc(-c3ccccc3Cl)cs2)cc2ccccc21`
a: inactive

q: Field entry: `Cc1cc(CC(=O)O)c(C)n1-c1ccc(Cl)cc1`
a: inactive

====

targetSystem: Estrogen receptor beta (Homo sapiens)
testSummary: qHTS assay to identify small molecule antagonists of the estrogen receptor beta (ER-beta) signaling pathway (AID 1259378)
settings: ER-beta-UAS-bla HEK293T, beta-lactamase FRET ratio, 16 h; series mostly up to 92.4 µM
Records with an inconclusive call do not appear. Activity calls are given as the source filed them. Calls follow the shape of the dose curve; as a rule, active = well fitted inhibition curve with a large enough effect in the signal ratio in the repeat runs (not every such curve was filed as active); inconclusive = weak or mixed curves, or effect the other way; inactive = no such curve, though single readings can be large or run the other way; the % refers to the signal ratio.
The reply should be one of these categories: active, inactive

q: Assay outcome for C=CC(=O)OCC(C)OCC(C)OCC(C)OC(=O)C=C (centres undefined) : what was it?
a: active

q: Field entry: `CN1CCN(C2=Nc3ccccc3Sc3ccc(Cl)cc32)CC1`
a: inactive

q: Field entry: `c1ccc(OCc2ccc(CCCN3CCOCC3)cc2)cc1`
a: inactive

q: Field entry: `Cc1occc1S`
a: inactive

q: Field entry: OCCC1CCCCN1 (centres undefined)
a: inactive

q: Field entry: `CCOc1nc2cccc(C(=O)O)c2n1Cc1ccc(-c2ccccc2-c2nn[nH]n2)cc1`
a: inactive

q: Field entry: `O=C(O)C(c1ccc(Cl)cc1)c1ccc(Cl)cc1`
a: inactive

q: Field entry: `C=Cc1c(C)c2cc3[nH]c(cc4nc(cc5nc(cc1[nH]2)C(C)=C5CCC(=O)O)C(CCC(=O)O)=C4C)c(C)c3C=C`
a: inactive

q: Field entry: `O=C(c1ccc(O)cc1)c1ccc(O)cc1`
a: inactive

====

targetSystem: Luciferin 4-monooxygenase (Photinus pyralis)
testSummary: qHTS assay to identify small molecule inhibitors of firefly luciferase (AID 1224835); also: nearly all actives have a fitted effect of over 25% in size
settings: purified P. pyralis luciferase, luminescence inhibition; series mostly up to 115 µM
Results filed as inconclusive are left out. Activity calls are given as the source filed them. Calls follow the shape of the dose curve; as a rule, active = well fitted inhibition curve with a large enough effect in the repeat runs; inconclusive = weak or mixed curves; inactive = flat fitted curve, though single readings scatter.
measuredMetric: outcome

Answered cases to consult:
molecule	outcome
CCOc1ccc2[nH]cc(C(=O)NCc3ccccc3)c(=O)c2n1	inactive
CCc1nn(C2CCCCC2)c2cc(C3(C#N)CCC(C(=O)O)CC3)ccc12 (configuration not stated)	inactive
CCCCCC(CO)CCC (configuration not stated)	inactive
COCCO	inactive
O=C(O)C1CCC(C(=O)O)CC1 (configuration not stated)	inactive
Cn1c(N)nc2nc[nH]c2c1=O	inactive

q: Can you look up the measured outcome of `CC(=O)c1ccc2c(c1)[C@H](NC(=O)c1ccc(F)cc1)[C@@H](O)C(C)(C)O2` for me?
a: inactive

q: Field entry: CC1CCc2cc(F)cc3c(=O)c(C(=O)O)cn1c23 (configuration not stated)
a: inactive

q: Field entry: `CC(C)(C)c1cc(O)c(C(C)(C)C)cc1O`
a: inactive
